- TARGET: human adrenergic-α2A receptor (Homo sapiens)
- Construct: expressed in transfected cells; host or cells: CHO cells, stably transfected; membranes
- Sequence (P08913 whole entry): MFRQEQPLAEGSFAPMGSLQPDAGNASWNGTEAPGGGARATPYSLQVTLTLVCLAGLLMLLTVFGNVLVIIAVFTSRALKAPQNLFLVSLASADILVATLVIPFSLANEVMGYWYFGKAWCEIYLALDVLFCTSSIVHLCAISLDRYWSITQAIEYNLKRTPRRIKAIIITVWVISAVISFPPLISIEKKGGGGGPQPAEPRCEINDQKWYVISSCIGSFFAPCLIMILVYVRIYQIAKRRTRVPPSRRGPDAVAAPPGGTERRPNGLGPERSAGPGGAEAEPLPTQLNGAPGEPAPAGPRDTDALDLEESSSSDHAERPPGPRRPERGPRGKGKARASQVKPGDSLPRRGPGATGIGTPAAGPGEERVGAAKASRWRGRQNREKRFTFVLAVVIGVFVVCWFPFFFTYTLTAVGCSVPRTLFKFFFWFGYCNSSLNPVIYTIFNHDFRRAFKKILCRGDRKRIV
- PROTOCOL_SUMMARY: Radioligand binding experiment for hα2A receptor ([3H]raulwolscine, CHO cell membranes)
MEASURED_PROPERTY: IC50 (nM)
Enter your answer as a number in nM; do not include the unit.

Here are 3 molecules together with their reported answers.
molecule="NCCCn1ccnc(NC2CCN(CCc3ccccc3)CC2)c1=O [Compound 6-1]" measurement_unit=nM test_result=3980
molecule="O=c1c(NC2CCN(CCc3ccccc3)CC2)nccn1Cc1cccc(Br)c1 [Compound 6-8]" measurement_unit=nM test_result=1000
molecule="O=c1[nH]ccnc1NC1CCN(CCCc2ccccc2)CC1 [Compound 7-7]" measurement_unit=nM test_result=1580

Next up:
INPUT: So what's the measured IC50 for this one? O=C1c2ccccc2C(=O)N1CCCn1ccnc(NC2CCN(CCCc3ccccc3)CC2)c1=O [Compound 7-5]
OUTPUT: 501

---

- TARGET: 5HT-Transporter (Homo sapiens)
- Construct: Human platelet membranes (Oceanix Biosciences Corporation, Hanover, Md., USA) were thawed; tissue Oceanix Biosciences Corporation; host or cells: human platelet membranes
- Sequence (P31645 whole entry): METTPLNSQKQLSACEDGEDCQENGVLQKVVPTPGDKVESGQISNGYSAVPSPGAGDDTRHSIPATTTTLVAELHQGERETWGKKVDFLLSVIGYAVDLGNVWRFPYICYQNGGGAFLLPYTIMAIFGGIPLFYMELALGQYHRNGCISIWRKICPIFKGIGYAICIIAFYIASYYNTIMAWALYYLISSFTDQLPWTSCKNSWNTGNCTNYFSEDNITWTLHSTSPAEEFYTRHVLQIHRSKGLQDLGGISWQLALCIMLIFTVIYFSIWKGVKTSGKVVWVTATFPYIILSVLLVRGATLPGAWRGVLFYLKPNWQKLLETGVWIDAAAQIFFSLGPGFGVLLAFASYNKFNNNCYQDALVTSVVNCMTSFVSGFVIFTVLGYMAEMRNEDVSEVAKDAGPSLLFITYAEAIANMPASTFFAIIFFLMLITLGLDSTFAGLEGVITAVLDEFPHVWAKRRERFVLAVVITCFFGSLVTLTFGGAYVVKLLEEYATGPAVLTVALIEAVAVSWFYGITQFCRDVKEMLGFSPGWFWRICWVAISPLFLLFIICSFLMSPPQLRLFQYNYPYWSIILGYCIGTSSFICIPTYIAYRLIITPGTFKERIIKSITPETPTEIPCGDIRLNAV
- PROTOCOL_SUMMARY: Binding experiment for the 5HT-transporter ([3H]paroxetine, human platelet membranes)
- EXPERIMENTAL_CONTEXT: [3H]paroxetine 0.5 nM, read-out: h-5HTT pIC50 (converted)
MEASURED_PROPERTY: IC50 (µM)
I only need the number, in µM, no unit after it.

Example entries and their recorded answers appear below.
molecule="O=c1c(NC2CCN(Cc3ccc(OCc4ccccc4)cc3)CC2)nccn1Cc1cccc(Br)c1 [Compound 11-6]" measured_property=IC50 test_result=1.58
molecule="O=C1c2ccccc2C(=O)N1CCCn1ccnc(NC2CCN(Cc3ccc(-c4ccccc4)cc3)CC2)c1=O [Compound 1-4]" measured_property=IC50 test_result=0.158

INPUT: Can you look up the measured IC50 of O=c1c(NC2CCN(CCCc3ccccc3)CC2)nccn1Cc1ccc(Br)cc1 [Compound 7-13] for me?
OUTPUT: 1

---

- TARGET: human adrenergic-α2C receptor (Homo sapiens, UniProt P18825)
- Construct: expressed in transfected cells; host or cells: CHO cells, stably transfected; membranes
- PROTOCOL_SUMMARY: Radioligand binding experiment for α2C-adrenoceptor ([3H]raulwolscine, CHO cell membranes)
- EXPERIMENTAL_CONTEXT: [3H]raulwolscine 1 nM, membranes of CHO cells transfected with human α2C receptor; read-out: h-α2C pIC50 (converted)
// IC50 lookup, one value per entry
Numeric only. Scale: µM

// below: answered molecules
molecule=O=c1c(NC2CCN(CCCc3ccccc3)CC2)nccn1CCN1CCCCC1 test_result=0.126
molecule=C=CCn1ccnc(N2CCN(Cc3cccc(-c4ccccc4)c3)CC2)c1=O test_result=0.794
molecule=NCc1ccc(Cn2ccnc(NC3CCN(Cc4ccccc4)CC3)c2=O)cc1 test_result=0.631

Now examine the next entry.
INPUT: Fill in: IC50 of O=c1c(NC2CCN(CC(c3ccccc3)c3ccccc3)CC2)nccn1Cc1ccc(Br)cc1 is ___
OUTPUT: 0.501

---

Recorded IC50 values for a group of compounds are listed next.
- TARGET: 5HT-Transporter (Homo sapiens)
- Construct: Human platelet membranes (Oceanix Biosciences Corporation, Hanover, Md., USA) were thawed; tissue Oceanix Biosciences Corporation; host or cells: human platelet membranes
- PROTOCOL_SUMMARY: Binding experiment for the 5HT-transporter ([3H]paroxetine, human platelet membranes)
- EXPERIMENTAL_CONTEXT: [3H]paroxetine 0.5 nM, read-out: h-5HTT pIC50 (converted)
Number only, in µM; omit the unit.

Sample records with IC50:
compound="NCc1ccc(Cn2ccnc(NC3CCN(Cc4ccc(-c5ccccc5)cc4)CC3)c2=O)cc1 [Compound 1-1]" measured_property=IC50 measurement_unit=µM test_result=0.501
compound="NCc1ccc(Cn2ccnc(NC3CCN(Cc4ccccc4)CC3)c2=O)cc1 [Compound 5-1]" measured_property=IC50 measurement_unit=µM test_result=7.94
compound="O=c1c(NC2CCN(Cc3ccc(-c4ccccc4)cc3)CC2)nccn1CCN1CCCCC1 [Compound 1-3]" measured_property=IC50 measurement_unit=µM test_result=2.51
compound="O=c1c(NC2CCN(CCc3ccccc3)CC2)nccn1Cc1ccc(Br)cc1 [Compound 6-9]" measured_property=IC50 measurement_unit=µM test_result=6.31

API: the following record is the query input.
INPUT: May I ask what IC50 has been recorded for COC(=O)Cn1ccnc(NC2CCN(Cc3ccc(-c4ccccc4)cc3)CC2)c1=O [Compound 1-5] ?
OUTPUT: 5.01

---

Parameter: IC50. Scope: all listed entries.
- TARGET: human adrenergic-α2C receptor (Homo sapiens)
- Construct: expressed in transfected cells; host or cells: CHO cells, stably transfected; membranes
- Sequence (P18825 1-462): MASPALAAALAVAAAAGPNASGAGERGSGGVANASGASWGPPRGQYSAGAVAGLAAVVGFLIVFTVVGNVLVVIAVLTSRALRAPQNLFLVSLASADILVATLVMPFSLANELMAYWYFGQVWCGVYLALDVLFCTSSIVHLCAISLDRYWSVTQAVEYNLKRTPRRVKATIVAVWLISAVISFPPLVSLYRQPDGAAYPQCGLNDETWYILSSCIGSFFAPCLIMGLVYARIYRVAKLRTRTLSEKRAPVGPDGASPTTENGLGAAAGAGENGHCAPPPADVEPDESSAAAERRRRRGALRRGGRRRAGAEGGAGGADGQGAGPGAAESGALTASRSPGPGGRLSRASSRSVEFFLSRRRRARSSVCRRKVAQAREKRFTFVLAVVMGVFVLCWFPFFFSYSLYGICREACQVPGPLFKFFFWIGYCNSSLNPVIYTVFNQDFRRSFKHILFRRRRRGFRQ
- PROTOCOL_SUMMARY: Radioligand binding experiment for α2C-adrenoceptor ([3H]raulwolscine, CHO cell membranes)
- EXPERIMENTAL_CONTEXT: [3H]raulwolscine 1 nM, membranes of CHO cells transfected with human α2C receptor; read-out: h-α2C pIC50 (converted)
Give the value, in units of nM, as a plain number.

Known results for compounds:
test_smiles=CC(C)(C)OC(=O)NCc1ccc(Cn2ccnc(N3CCN(CCc4ccccc4)CC3)c2=O)cc1 measured_property=IC50 measurement_unit=nM test_result=316
test_smiles=O=c1c(NC2CCN(CC(c3ccccc3)c3ccccc3)CC2)nccn1Cc1ccccc1Br measured_property=IC50 measurement_unit=nM test_result=631
test_smiles=COC(=O)Cn1ccnc(NC2CCN(CCCc3ccccc3)CC2)c1=O measured_property=IC50 measurement_unit=nM test_result=794

INPUT: Sample O=c1c(N2CCN(Cc3ccccc3)CC2)nccn1Cc1ccc2ccccc2c1 — what was its IC50?
OUTPUT: 794

INPUT: What value of IC50 has been recorded for this entry: O=c1c(NC2CCN(CC(c3ccccc3)c3ccccc3)CC2)nccn1Cc1cccc(Br)c1
OUTPUT: 631

INPUT: Look up IC50 for this compound: O=c1c(N2CCN(CCc3ccccc3)CC2)nccn1Cc1ccc(-c2ccccc2)cc1
OUTPUT: 631

INPUT: For CC(C)(C)OC(=O)NCCCn1ccnc(NC2CCN(CCc3ccccc3)CC2)c1=O , what is its reported IC50?
OUTPUT: 631

INPUT: What does the record list as IC50 for CC(C)(C)OC(=O)NCc1ccc(Cn2ccnc(NC3CCN(CC(c4ccccc4)c4ccccc4)CC3)c2=O)cc1 ?
OUTPUT: 631

INPUT: Sample NCc1ccc(Cn2ccnc(N3CCN(Cc4cccc(-c5ccccc5)c4)CC3)c2=O)cc1 — what was its IC50?
OUTPUT: 631

INPUT: So what does the record say about IC50 for C=CCn1ccnc(N2CCN(CCc3ccccc3)CC2)c1=O ?
OUTPUT: 631

---

- TARGET: 5HT-Transporter (Homo sapiens)
- Construct: Human platelet membranes (Oceanix Biosciences Corporation, Hanover, Md., USA) were thawed; tissue Oceanix Biosciences Corporation; host or cells: human platelet membranes
- PROTOCOL_SUMMARY: Binding experiment for the 5HT-transporter ([3H]paroxetine, human platelet membranes)
- EXPERIMENTAL_CONTEXT: [3H]paroxetine 0.5 nM, read-out: h-5HTT pIC50 (converted)
Overview of reported IC50 across a group of molecules:

Some molecules with known IC50 results, for comparison:
molecule="O=c1c(NC2CCN(CC(c3ccccc3)c3ccccc3)CC2)nccn1Cc1cccc(Br)c1 [Compound 9-8]" target="5HT-Transporter (Homo sapiens)" test_result="5.01 µM"
molecule="CN(CCc1ccccc1)C1CCN(c2nccn(CCC(=O)c3ccccc3)c2=O)CC1 [Compound 8-2]" target="5HT-Transporter (Homo sapiens)" test_result="> 10 µM"
molecule="CC(C)(C)OC(=O)NCCCn1ccnc(NC2CCN(CCc3ccccc3)CC2)c1=O [Compound 6-4]" target="5HT-Transporter (Homo sapiens)" test_result="> 10 µM"

INPUT: What value of IC50 has been recorded for this entry: O=c1c(NC2CCN(CCCc3ccccc3)CC2)nccn1Cc1ccccc1Br [Compound 7-11]
OUTPUT: 2 µM

INPUT: Dear colleague, I am looking for the recorded IC50 of the following molecule: CN(C)CCCn1ccnc(NC2CCN(Cc3ccc(OCc4ccccc4)cc3)CC2)c1=O [Compound 11-2]
OUTPUT: > 10 µM

INPUT: Request the reported IC50 associated with O=C(Cn1ccnc(N2CCN(CCc3ccccc3)CC2)c1=O)c1ccccc1 [Compound 10-7]
OUTPUT: > 10 µM

INPUT: Quick check: IC50 of CC(C)(C)OC(=O)NCCCn1ccnc(NC2CCN(Cc3ccc(OCc4ccccc4)cc3)CC2)c1=O [Compound 11-3] ?
OUTPUT: > 10 µM

INPUT: Entry under review: O=c1c(NC2CCN(Cc3ccc(OCc4ccccc4)cc3)CC2)nccn1CCN1CCCCC1 [Compound 11-4] . Reported IC50?
OUTPUT: > 10 µM
